Provenance of the data: ChEMBL document CHEMBL4364316

# target_system: Cystic fibrosis transmembrane conductance regulator (Homo sapiens, UniProt P13569, F508DEL)
# Sequence (P13569 as listed by the source): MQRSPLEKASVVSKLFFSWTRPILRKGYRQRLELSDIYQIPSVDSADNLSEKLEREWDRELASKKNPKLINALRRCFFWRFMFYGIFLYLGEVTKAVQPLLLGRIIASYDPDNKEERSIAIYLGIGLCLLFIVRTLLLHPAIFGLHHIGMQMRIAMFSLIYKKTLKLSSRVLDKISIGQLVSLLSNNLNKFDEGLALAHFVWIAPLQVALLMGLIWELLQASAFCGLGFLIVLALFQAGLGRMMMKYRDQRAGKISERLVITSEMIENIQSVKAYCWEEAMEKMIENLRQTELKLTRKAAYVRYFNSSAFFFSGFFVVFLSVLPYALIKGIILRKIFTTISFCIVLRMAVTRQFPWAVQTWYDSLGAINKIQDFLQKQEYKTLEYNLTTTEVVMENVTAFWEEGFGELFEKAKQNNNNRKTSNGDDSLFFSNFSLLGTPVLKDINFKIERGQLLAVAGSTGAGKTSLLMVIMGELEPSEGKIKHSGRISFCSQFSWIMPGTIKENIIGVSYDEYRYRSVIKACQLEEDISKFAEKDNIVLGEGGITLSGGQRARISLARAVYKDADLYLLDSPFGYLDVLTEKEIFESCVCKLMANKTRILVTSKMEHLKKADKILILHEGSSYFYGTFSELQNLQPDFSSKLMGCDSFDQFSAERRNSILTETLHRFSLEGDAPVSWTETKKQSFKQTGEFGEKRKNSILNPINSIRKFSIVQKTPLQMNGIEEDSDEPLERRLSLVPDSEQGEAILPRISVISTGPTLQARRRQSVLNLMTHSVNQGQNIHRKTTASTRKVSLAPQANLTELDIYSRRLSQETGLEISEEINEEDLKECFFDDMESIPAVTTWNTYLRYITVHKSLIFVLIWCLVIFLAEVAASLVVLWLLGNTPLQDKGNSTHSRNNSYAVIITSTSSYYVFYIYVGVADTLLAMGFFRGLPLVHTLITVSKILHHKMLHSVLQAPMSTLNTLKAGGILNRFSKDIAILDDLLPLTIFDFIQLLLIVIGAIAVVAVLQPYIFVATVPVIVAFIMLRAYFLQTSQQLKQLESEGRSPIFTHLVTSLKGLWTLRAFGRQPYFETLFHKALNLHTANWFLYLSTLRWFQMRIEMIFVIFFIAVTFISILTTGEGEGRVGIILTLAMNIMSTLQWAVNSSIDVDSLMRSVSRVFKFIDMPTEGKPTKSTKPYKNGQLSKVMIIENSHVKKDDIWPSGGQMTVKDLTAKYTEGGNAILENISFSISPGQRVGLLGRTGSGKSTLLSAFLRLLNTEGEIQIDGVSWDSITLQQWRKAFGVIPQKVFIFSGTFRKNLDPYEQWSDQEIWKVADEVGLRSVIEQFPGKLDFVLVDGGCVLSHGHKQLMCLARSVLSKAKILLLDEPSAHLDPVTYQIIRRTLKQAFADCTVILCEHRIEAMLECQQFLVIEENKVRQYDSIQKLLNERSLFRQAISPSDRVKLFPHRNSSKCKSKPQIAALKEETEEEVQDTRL
# experimental_details: Corrector activity at CFTR F508del mutant (unknown origin) expressed in rat FRT cells assessed as iodide influx preincubated for 18 to 24 hrs followed by compound wash out and addition of forskolin and genistein by fluorescence based assay
# Type: cell-based
Response field label takes fulfilled when EC50 is strictly below 4 µM and not fulfilled in all other cases.

Solved cases below.
Cc1cc(C)c2cc(C#N)c(NCCNC(=O)c3cccs3)nc2c1 :: not fulfilled
COc1ccc(S(=O)(=O)N2CCN(c3nc4ccc(C)cc4cc3C#N)CC2)cc1 :: not fulfilled

Q. Lab note: confirm whether the reported EC50 for this molecule is below 4 µM, equality not counting. molecule: COc1ccc(C(=O)NCCNc2nc3c(C)cccc3cc2C#N)cc1OC
A. fulfilled

Q. Dear colleague, could you confirm whether EC50 of COc1ccc2nc(N3CCN(C(=O)c4ccccc4F)CC3)c(C#N)cc2c1 falls below 4 µM? Thanks.
A. not fulfilled

---

# target_system: Cystic fibrosis transmembrane conductance regulator (Homo sapiens, UniProt P13569, F508DEL)
# experimental_details: Potentiator activity at CFTR F508del mutant (unknown origin) expressed in rat FRT cells assessed as iodide influx preincubated for 18 to 24 hrs followed by compound wash out and subsequent compound and forskolin addition by fluorescence based assay
# Type: cell-based
assay_readout: EC50 (µM)
Number in µM, nothing else.

COc1ccc(C(=O)NCCNc2nc3ccc(C)cc3cc2C#N)cc1OC :: 15
COc1ccc2nc(N3CCN(C(=O)c4ccccc4F)CC3)c(C#N)cc2c1 :: 11
Cc1cc(C)c2cc(C#N)c(NCCNC(=O)c3cccs3)nc2c1 :: 14
COc1ccc(C(=O)NCCNc2nc3c(C)cccc3cc2C#N)cc1OC :: 15

Q. What value of EC50 has been reported for the following molecule? COc1ccc(S(=O)(=O)N2CCN(c3nc4ccc(C)cc4cc3C#N)CC2)cc1
A. 3.8

Q. // query EC50 value for entry COc1cccc(C(=O)NCCNc2nc3cc(C)cc(C)c3cc2C#N)c1
A. 14

---

Below is a list of entries, each paired with its recorded EC50 value.
# target_system: Cystic fibrosis transmembrane conductance regulator (Homo sapiens, UniProt P13569, F508DEL)
# experimental_details: Corrector activity at CFTR F508del mutant (unknown origin)
Give the number; nM is assumed, so skip it.

COc1ccc(Cl)cc1Nc1nc2c(s1)CCCc1nc(NC(=O)C(C)(C)C)sc1-2 :: 300
NC(=O)C1CCC(c2nc(-c3ccccn3)nc3c2CN(Cc2ccccc2)CC3)CC1 (stereo not given) :: 1400
COc1ccc(Cl)cc1Cn1nc(-c2sc(NC(=O)C(C)(C)C)nc2C)cc1C(=O)N1CCOCC1 :: 1000

From here, focus on the item given below.
Q. For O=C(O)c1ccc(C2CC(NC(=O)C3(c4ccc5c(c4)OC(F)(F)O5)CC3)c3ccc(OC(F)F)cc3O2)cc1 (stereo not given) , what is its reported EC50?
A. 0.5
